Target: Nek2 (Homo sapiens, UniProt P51955)
Construct: purchased Invitrogen
Sequence (P51955 whole entry): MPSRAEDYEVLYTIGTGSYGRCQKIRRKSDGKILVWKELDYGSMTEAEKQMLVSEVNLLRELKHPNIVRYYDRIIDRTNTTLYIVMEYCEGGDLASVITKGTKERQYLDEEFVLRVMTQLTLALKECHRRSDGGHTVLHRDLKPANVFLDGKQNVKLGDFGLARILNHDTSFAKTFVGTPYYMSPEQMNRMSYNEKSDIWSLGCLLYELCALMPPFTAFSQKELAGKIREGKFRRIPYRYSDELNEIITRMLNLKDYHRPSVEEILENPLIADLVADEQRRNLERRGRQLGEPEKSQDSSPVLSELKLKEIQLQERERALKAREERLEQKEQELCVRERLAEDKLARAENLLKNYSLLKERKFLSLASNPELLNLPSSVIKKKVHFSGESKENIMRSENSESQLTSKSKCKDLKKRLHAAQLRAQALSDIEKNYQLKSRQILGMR
Assay: Nek2 Caliper kinase inhibition assay
Type: biochemical
Settings: Caliper assay, 30 μM ATP
ENDPOINT_NAME: pIC50
Quick note: pIC50 means taking -log10 of the concentration in moles per liter.

Here are 3 compounds together with their reported answers.
[[record]]
input_smiles = "CC(C)(C)C(=O)Nc1ccc(Nc2nc(OCC3CCCCC3)c3nc[nH]c3n2)cc1"
endpoint_name = "pIC50"
measured_value = 4.62

[[record]]
input_smiles = "CN(C)C(=S)c1cccc(Nc2nc(OCC3CCCCC3)c3nc[nH]c3n2)c1"
endpoint_name = "pIC50"
measured_value = 5.28

[[record]]
input_smiles = "O=C(NCCN1CCOCC1)Nc1ccc(Nc2nc(OCC3CCCCC3)c3nc[nH]c3n2)cc1"
endpoint_name = "pIC50"
measured_value = 5.66


Continue with the next compound.
// assay Nek2 (Homo sapiens, UniProt P51955), entry CN(C)S(=O)(=O)Cc1cccc(Nc2nc(OCC3CCCCC3)c3nc[nH]c3n2)c1 , pIC50 value = 6.08

---

Record type: log10(IC50) measurement. Applies to: CDK2 (Homo sapiens, UniProt P24941)
// stored as log10 of IC50 expressed in µM

Before answering, review these 7 worked examples.
[[record]]
input_smiles = "O=C(Nc1ccc(Nc2nc(OCC3CCCCC3)c3nc[nH]c3n2)cc1)c1ccccc1"
endpoint_name = "log10(IC50)"
measured_value = 0.46

[[record]]
input_smiles = "CC(C)(C)C(=O)Nc1ccc(Nc2nc(OCC3CCCCC3)c3nc[nH]c3n2)cc1"
endpoint_name = "log10(IC50)"
measured_value = 0.99

[[record]]
input_smiles = "CCOc1nc(Nc2cccc(CC(=O)NCCCn3ccnc3)c2)nc2[nH]cnc12"
endpoint_name = "log10(IC50)"
measured_value = 0.72

[[record]]
input_smiles = "CN(C)[C@@H]1CCN(/C=C/c2nc(Nc3ccccc3)nc3[nH]cnc23)C1"
endpoint_name = "log10(IC50)"
measured_value = 0.84

[[record]]
input_smiles = "CC(C)N(C(=O)Cc1cccc(Nc2nc(OCC3CCCCC3)c3nc[nH]c3n2)c1)C(C)C"
endpoint_name = "log10(IC50)"
measured_value = 0.51

[[record]]
input_smiles = "CN(C)/C=C/c1nc(Nc2ccccc2)nc2[nH]cnc12"
endpoint_name = "log10(IC50)"
measured_value = 0.48

[[record]]
input_smiles = "O=S(=O)(Cc1cccc(Nc2nc(OCC3CCCCC3)c3nc[nH]c3n2)c1)N1CCNCC1"
endpoint_name = "log10(IC50)"
measured_value = -0.35


Continue with the compound presented below.
Param item: CN(C)CCCNS(=O)(=O)Cc1cccc(Nc2nc(OCC3CCCCC3)c3nc[nH]c3n2)c1 ; param system: CDK2 (Homo sapiens, UniProt P24941); output log10(IC50): -0.28

---

Target: Nek2 (Homo sapiens)
Construct: purchased Invitrogen
Experiment: Effect of pre-incubation of Nek2 with inhibitor on IC50 (time-dependence)
Format: biochemical
Conditions: 5 min after inhibitor addition
ENDPOINT_NAME: IC50 (nM)
Kindly provide the numeric value in nM only, without the unit symbol.

Lookup result for CN(C)/C=C/c1nc(Nc2ccccc2)nc2[nH]cnc12 ; measured IC50: 840

---

Target: Nek2 (Homo sapiens, UniProt P51955)
Construct: purchased Invitrogen
Test: Effect of pre-incubation of Nek2 with inhibitor on IC50 (time-dependence)
Type: biochemical
Conditions: 30 min after inhibitor addition
ENDPOINT_NAME: IC50 (µM)
Dear colleague, please return just the value in µM, with no unit written.

Value of IC50 reported for the compound CN(C)/C=C/c1nc(Nc2ccccc2)nc2[nH]cnc12 is 1.06
